Reference source for all entries: patent US20260193228A1

# TESTED_ON: NLRP3 (Homo sapiens)
# Sequence (Q96P20 whole entry): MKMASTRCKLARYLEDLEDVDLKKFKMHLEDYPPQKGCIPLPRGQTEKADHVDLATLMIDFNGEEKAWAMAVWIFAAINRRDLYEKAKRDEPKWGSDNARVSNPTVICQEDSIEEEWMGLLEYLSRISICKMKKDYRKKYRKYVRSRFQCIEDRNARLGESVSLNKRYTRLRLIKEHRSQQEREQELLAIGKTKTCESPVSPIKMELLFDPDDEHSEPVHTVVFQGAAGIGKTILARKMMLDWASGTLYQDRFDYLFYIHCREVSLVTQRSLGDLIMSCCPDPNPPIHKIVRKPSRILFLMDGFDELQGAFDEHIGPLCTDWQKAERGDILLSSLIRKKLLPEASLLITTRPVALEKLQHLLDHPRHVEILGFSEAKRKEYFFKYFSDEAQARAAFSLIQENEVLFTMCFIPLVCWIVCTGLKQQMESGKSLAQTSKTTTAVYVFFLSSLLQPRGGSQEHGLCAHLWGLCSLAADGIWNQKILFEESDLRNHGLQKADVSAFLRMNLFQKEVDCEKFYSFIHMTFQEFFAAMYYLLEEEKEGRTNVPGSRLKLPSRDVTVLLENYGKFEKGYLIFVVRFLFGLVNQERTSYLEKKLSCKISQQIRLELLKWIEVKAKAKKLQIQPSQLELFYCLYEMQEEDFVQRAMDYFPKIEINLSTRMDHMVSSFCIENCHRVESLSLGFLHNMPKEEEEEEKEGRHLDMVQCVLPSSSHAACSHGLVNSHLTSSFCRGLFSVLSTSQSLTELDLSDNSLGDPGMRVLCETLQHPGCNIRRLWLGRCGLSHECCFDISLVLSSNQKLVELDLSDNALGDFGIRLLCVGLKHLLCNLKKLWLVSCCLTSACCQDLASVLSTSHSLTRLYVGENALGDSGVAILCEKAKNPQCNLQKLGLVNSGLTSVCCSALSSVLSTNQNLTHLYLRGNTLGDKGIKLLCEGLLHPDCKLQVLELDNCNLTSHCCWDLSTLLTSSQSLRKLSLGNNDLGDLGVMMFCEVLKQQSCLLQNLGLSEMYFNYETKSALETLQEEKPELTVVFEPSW
# ASSAY_OVERVIEW: THP-1 cells pyroptosis assay
# Assay type: cell-based
# Design: Seed THP-1 cells (25,000 cells/well) containing 1.0 μg/ml LPS; host or cells: THP-1 cells
# CONDITION_LABEL: 1.0 μg/ml LPS, nigericin 5 μM, resazurin readout
# Procedure: THP-1 cells (ATCC #TIB-202) were grown in RPMI containing L-glutamine (Gibco #11835) supplemented with 1 mM sodium pyruvate (Sigma #S8636) and penicillin (100 units/ml)/streptomycin (0.1 mg/ml) (Sigma #P4333) in 10% Fetal Bovine Serum (FBS) (Sigma #F0804). […] The cells were then counted and viability (>90%) checked by Trypan blue (Sigma #T8154). […] The following method step-by-step assay was followed for compound screening. • 1. […] Plates were read in an Envision reader at Ex 560 nm and Em 590 nm • 9. […]
PARAMETER: IC50 (µM)

P = CCN1CCC[C@@H](Nc2nnc(-c3c(C)cc4c(c3O)CCO4)c(=O)n2C)C1
Q = CCN1CCC[C@@H](Nc2nnc(-c3ccc(C(F)(F)F)cc3O)c(=O)n2C)C1
R = CCN1CCC[C@@H](Nc2nnc(-c3c(C)cc4c(c3O)CCC4)c(=O)n2C)C1
Prompt: Rank the 3 compounds: largest IC50 first, smallest last. Note for the reader: the ranking is given by listing the labels in the order requested.
Completion: Q, P, R
(Q: 0.616 µM, P: 0.039 µM, R: 0.017 µM)

P = CCN1CCC[C@@H](Nc2nnc(-c3c(C)cc(C(F)(F)F)cc3O)c(=O)n2C)C1
Q = Cc1cc2c(c(O)c1-c1nnc(N[C@@H]3CCCN(CCO)C3)n(C)c1=O)CCC2
Prompt: Between P and Q , whose recorded IC50 is greater? Field: selected label. Fill in the label of the entry you choose.
Completion: Q
